# Assayed System: Oxysterols receptor LXR-beta (Homo sapiens) (UniProt P55055)
# Sequence (P55055 whole entry, looked up): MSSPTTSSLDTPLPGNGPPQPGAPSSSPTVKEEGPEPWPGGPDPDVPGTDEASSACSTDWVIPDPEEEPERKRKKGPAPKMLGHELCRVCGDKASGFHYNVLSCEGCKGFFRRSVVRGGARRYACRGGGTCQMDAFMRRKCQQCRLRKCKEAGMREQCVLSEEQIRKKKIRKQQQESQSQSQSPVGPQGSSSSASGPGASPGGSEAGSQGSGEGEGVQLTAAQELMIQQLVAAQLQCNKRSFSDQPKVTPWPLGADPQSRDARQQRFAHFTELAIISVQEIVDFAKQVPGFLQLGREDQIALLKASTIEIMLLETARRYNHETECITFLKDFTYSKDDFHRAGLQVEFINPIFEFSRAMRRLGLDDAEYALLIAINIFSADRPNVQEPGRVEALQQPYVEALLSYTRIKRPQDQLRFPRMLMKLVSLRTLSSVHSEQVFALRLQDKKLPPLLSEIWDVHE
# Experimental Details: ATG_LXRb_TRANS: Attagene TRANS-FACTORIAL HepG2 Assay for human Liver X Receptor beta (LXRb) (AID 2282981)
# Condition Context: HepG2 Attagene TRANS GAL4-LXRb reporter, mRNA
Inconclusive results are not listed. Calls of active or inactive are those of the source. Rule for the calls: active = hit-call score of the fitted dose curve at least 0.9, where 1 is the maximum; inconclusive = response in the unintended direction; inactive = score below 0.9.
Result category, one only: true for active, false for inactive

Hi team, can someone confirm the assay call for `O=C(O)CCCCC(=O)O` ?
false

Write down the call the test reported for this compound. Item: `COc1cc(-c2nc(NC(=O)c3cc4cc(C)cc(C)c4n3CC(=O)O)sc2CCC2CCCCC2)c(OC)cc1Cl`
false

Each compound tested received a call. Report the one for `CC(=O)Oc1ccccc1C(=O)O` .
true

Hey, what did the test say about `CC1=C(/C=C/C(C)=C/C=C/C(C)=C/CO)C(C)(C)CCC1` ?
false

I would be grateful if you could indicate the recorded call for `C=CCOC(=O)c1ccccc1C(=O)OCC=C` .
false

Hello, I am checking results. What call was entered for `Cc1oc(-c2ccccc2)nc1CCOc1cccc2c1ccn2CCC(=O)O` ?
false

Kindly provide the recorded test outcome for the following compound: `CCNc1cccc(C)c1`
false

* * *

# Experimental Details: BSK_CASM3C_Proliferation: Cell Proliferation Assessment in the BioMAP Diversity Plus: CASM3C Assay (AID 2283047);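 note: sulforhodamine B total protein stain as relative cell number at 560 nm; sub-confluent cells exposed 48 h before staining; fitted both ways against DMSO so gain or loss of cell number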
# Condition Context: primary human coronary artery smooth muscle cells
Activity calls are given as the source filed them. How the source made its calls: active means hit-call score of the fitted dose curve at least 0.9, where 1 is the maximum; inactive means score below 0.9.
I would appreciate it if you answered using one of these outcomes: 1 (active), -1 (inactive)

I would be grateful if you could indicate the recorded call for `COc1ccc2c(c1)c(CC(=O)O)c(C)n2C(=O)c1ccc(Cl)cc1` .
-1

Look up the recorded call for `CNC(=O)[C@H]1O[C@@H](n2cnc3c(NCc4cc(Cl)ccc4OCc4cc(C)no4)ncnc32)[C@H](O)[C@@H]1N` in this test.
-1

Lab log entry: `O=c1c(O)c(-c2ccc(O)c(O)c2)oc2cc(O)cc(O)c12` — outcome as called in the assay?
1

Just curious, what result did `CCCCCCOCCO` get here?
-1

Status in this test for `Cc1c(C(=O)O)c(O)cc2c1C(=O)c1c(O)c([C@@H]3O[C@H](CO)[C@@H](O)[C@H](O)[C@H]3O)c(O)c(O)c1C2=O` ?
-1

In this assay, the call recorded for `CCCCCCCC=O` was what?
-1

In this assay, the call recorded for COCCOC[C@H](CC1(C(=O)NC2CCC(C(=O)O)CC2)CCCC1)C(=O)Oc1ccc2c(c1)CCC2 (some centres undefined) was what?
-1

# lookup: test call for `CCCCCCCCCCO`
-1

Hi team, can someone confirm the assay call for `CCCCCCCCCCCC(=O)OC` ?
-1

Kindly provide the recorded test outcome for the following compound: `Cc1ccccc1Cl`
-1

Each compound tested received a call. Report the one for `O=c1[nH]cc(F)c(=O)[nH]1` .
1

Test call, this compound: `CCCCCCC(=O)OCC`
-1

Please share the test call associated with `CCCCCCCCCCCCCCCC` .
-1

State the result this test recorded for `Cc1ccc(C(C)C)c(O)c1` .
-1

# lookup: test call for `CCOC(=O)CCC(=O)OCC`
-1

Test call for this compound, please: `CC1(C)NC(=O)NC1=O`
-1

Short answer needed: outcome of this test for `CCCCOC(=O)CCCCCCCCC(=O)OCCCC` ?
-1

Per the assay record, what outcome was assigned to `O=[N+]([O-])C(CO)(CO)CO` ?
-1

Outcome? `C1CCC(SSC2CCCCC2)CC1`
1

GET /call?item= `Oc1ccc2ccccc2c1N=Nc1ccccc1` returns the recorded outcome of this test.
-1

Could you check what this test reported for `Cc1cc(NC(=O)C(=O)O)cc(C)c1Oc1ccc(O)c2c1CCC2` ?
-1

Recorded call for `OC[C@@H](O)[C@@H](O)[C@H](O)[C@H](O)CO` ?
-1

Please state the recorded outcome for this compound: `CN[C@H]1CC[C@@H](c2ccc(Cl)c(Cl)c2)c2ccc(S(N)(=O)=O)cc21`
1

Give the logged outcome of this assay for the following compound: `COCCOCCOC`
-1

These measurements were taken from PubChem BioAssay (EPA / NIEHS).
